Test system: EKO-35 araC::mdtEF
Assay: MIC susceptibility profiling, efflux platform
Assay type: cell-based, Escherichia coli
Settings: EKO-35 araC::mdtEF compared to EKO-35

{"columns": ["molecule", "units.label", "Fold change of MICs"],
 "data": [
  ["CO[C@@H]1[C@@H](OC(N)=O)[C@@H](O)[C@H](Oc2ccc3c(O)c(NC(=O)c4ccc(O)c(CC=C(C)C)c4)c(=O)oc3c2C)OC1(C)C [novobiocin]", "fold", 16],
  ["N#Cc1ccc(-c2c(NC(=O)C(Cl)Cl)oc(-c3cccs3)c2C#N)cc1 [compound 2]", "fold", 1],
  ["C[C@H](CCC(=O)NCCS(=O)(=O)[O-])[C@H]1CC[C@H]2[C@@H]3CC[C@@H]4C[C@H](O)CC[C@]4(C)[C@H]3C[C@H](O)[C@]12C.[Na+] [sodium taurodeoxycholate]", "fold", 2],
  ["COC(=O)c1sc(N2CCCC2)c(C#N)c1-c1cccs1 [compound 10]", "fold", 1],
  ["O=C(N[C@H](CO)[C@H](O)c1ccc([N+](=O)[O-])cc1)C(Cl)Cl [chloramphenicol]", "fold", 1],
  ["[H]/N=C(/N)N[C@H]1[C@H](O)[C@@H](O)[C@H](O[C@@H]2O[C@@H](C)[C@](O)(C=O)[C@H]2O[C@@H]2O[C@@H](CO)[C@H](O)[C@@H](O)[C@@H]2NC)[C@@H](N/C(N)=N\\[H])[C@@H]1O [Streptomycin]", "fold", 2],
  ["CN(C)[C@@H]1C(O)=C(C(N)=O)C(=O)[C@@]2(O)C(O)=C3C(=O)c4c(O)cccc4[C@@](C)(O)[C@H]3C[C@@H]12 [tetracycline]", "fold", 1],
  ["CCCCCCCCCCCCOS(=O)(=O)[O-].[Na+] [SDS, sodium dodecyl sulphate]", "fold", 32]
]}

----------
Test system: wild-type E. coli K-12 str. BW25113
Test: microbe, parasite or virus in culture
Format: cell-based, Escherichia coli
Settings: Escherichia coli, BW25113; Table 10; without pore; technical duplicate; read-out: Minimum inhibitory concentration (MIC), K-12

{"columns": ["molecule", "target.or.system", "units.label", "MIC"],
 "data": [
  ["CC[C@H]1OC(=O)[C@H](C)[C@@H](O[C@H]2C[C@@](C)(OC)[C@@H](O)[C@H](C)O2)[C@H](C)[C@@H](O[C@@H]2O[C@H](C)C[C@H](N(C)C)[C@H]2O)[C@](C)(O)C[C@@H](C)CN(C)[C@H](C)[C@@H](O)[C@]1(C)O", "wild-type E. coli K-12 str. BW25113", "µg/mL", 6.25],
  ["CN(C)c1ccc(O)c2c1C[C@H]1C[C@H]3[C@H](N(C)C)C(O)=C(C(N)=O)C(=O)[C@@]3(O)C(O)=C1C2=O", "wild-type E. coli K-12 str. BW25113", "µg/mL", 0.781],
  ["O=C(O)c1cn(C2CC2)c2cc(N3CCNCC3)c(F)cc2c1=O", "wild-type E. coli K-12 str. BW25113", "µg/mL", 0.01],
  ["COc1ccc(C[C@H](N)C(=O)N[C@H]2[C@@H](O)[C@H](n3cnc4c(N(C)C)ncnc43)O[C@@H]2CO)cc1", "wild-type E. coli K-12 str. BW25113", "µg/mL", 50],
  ["CO[C@@H]1[C@@H](OC(N)=O)[C@@H](O)[C@H](Oc2ccc3c(O)c(NC(=O)c4ccc(O)c(CC=C(C)C)c4)c(=O)oc3c2C)OC1(C)C", "wild-type E. coli K-12 str. BW25113", "µg/mL", 200],
  ["CCn1cc(C(=O)O)c(=O)c2ccc(C)nc21", "wild-type E. coli K-12 str. BW25113", "µg/mL", 10],
  ["CC[n+]1c(-c2ccccc2)c2cc(N)ccc2c2ccc(N)cc21 [ethidium bromide]", "wild-type E. coli K-12 str. BW25113", "µg/mL", 100]
]}
